meta.source: the supplement of paper PMC8728848

Molecular target: Gal(b1-3)GlcNAc(b1-3)Gal(b1-4)[Fuc(a1-3)]GlcNAc(b1-6)[Gal(b1-3)GlcNAc(b1-3)]Gal(b1-4)Glc
Assay: glycan array binding signal (z-score within array); higher = stronger binding
Settings: glycan notation: IUPAC condensed, linker removed
Many of the other results were omitted from the sample, so the strongest signals are more common in it than they were.
The entries below are paired with their reported glycan array binding signal (z-score).
EXPERIMENTAL READOUT: glycan array binding signal (z-score)

[[record]]
binder = "Epa3to1 (Candida glabrata) (protein) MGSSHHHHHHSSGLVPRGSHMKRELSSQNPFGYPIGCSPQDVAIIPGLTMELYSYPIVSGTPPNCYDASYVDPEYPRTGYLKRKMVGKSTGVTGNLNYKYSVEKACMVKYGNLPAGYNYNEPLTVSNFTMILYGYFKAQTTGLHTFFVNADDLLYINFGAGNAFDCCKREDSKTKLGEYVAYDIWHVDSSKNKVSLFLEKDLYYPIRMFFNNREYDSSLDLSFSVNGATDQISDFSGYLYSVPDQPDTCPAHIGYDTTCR"
recorded_result = -0.061

[[record]]
binder = "Clone730PsrP (Streptococcus pneumoniae) (protein) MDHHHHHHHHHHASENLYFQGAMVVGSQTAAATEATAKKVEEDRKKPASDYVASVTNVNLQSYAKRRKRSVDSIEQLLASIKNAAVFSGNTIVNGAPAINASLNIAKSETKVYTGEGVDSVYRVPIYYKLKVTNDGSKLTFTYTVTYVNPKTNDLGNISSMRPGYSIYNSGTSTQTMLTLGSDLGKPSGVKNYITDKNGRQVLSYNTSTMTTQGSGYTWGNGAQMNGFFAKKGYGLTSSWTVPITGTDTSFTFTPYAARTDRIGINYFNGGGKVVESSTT"
recorded_result = -0.518

[[record]]
binder = "LecB LY19 (Pseudomonas aeruginosa) (protein) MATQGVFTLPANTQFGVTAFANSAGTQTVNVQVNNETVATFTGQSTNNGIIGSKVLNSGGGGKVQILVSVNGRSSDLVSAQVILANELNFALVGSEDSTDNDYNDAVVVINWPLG"
recorded_result = 0.2

[[record]]
binder = "CIH1 (Colletotrichum higginsianum) (protein) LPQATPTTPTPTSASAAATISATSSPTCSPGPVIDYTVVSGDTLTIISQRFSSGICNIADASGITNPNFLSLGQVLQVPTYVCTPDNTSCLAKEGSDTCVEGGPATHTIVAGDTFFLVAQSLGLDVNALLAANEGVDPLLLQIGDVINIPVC"
recorded_result = -0.057

